Source listed as patent US7101878B1.

Biological target: rat GnRH receptor (Rattus norvegicus)
Sequence (P30969 1-327): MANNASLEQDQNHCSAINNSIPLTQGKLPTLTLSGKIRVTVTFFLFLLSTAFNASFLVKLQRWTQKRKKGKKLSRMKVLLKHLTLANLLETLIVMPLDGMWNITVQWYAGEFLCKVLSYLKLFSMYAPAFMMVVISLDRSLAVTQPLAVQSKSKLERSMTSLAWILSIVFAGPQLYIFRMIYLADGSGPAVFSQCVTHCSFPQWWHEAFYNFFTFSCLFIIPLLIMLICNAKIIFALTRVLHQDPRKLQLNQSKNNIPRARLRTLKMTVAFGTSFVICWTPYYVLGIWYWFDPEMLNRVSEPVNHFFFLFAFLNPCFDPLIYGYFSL
Test: Radioligand binding, 125I-GnRH-A, rat pituitary membranes
Set-up: membranes were prepared from rat pituitary; from tissue; host or cells: rat pituitary
Details: read-out: rGnRH IC50
Collected IC50 values appear next to each entry.
Express it in nM; write the number only.

These solved cases illustrate the format of a correct answer.
COC(CCCNC(=O)c1ccc(Cc2cc3c(cc2C)C(C)(C)CCC3(C)C)o1)OC ... 560
Cc1cc2c(cc1Cc1ccc(C(=O)NCC3CCCC(CNc4nccc(NCC5CCCO5)n4)C3)o1)C(C)(C)CCC2(C)C (stereo not drawn) ... 9
Cc1cc2c(cc1Cc1ccc(C(=O)NC[C@H]3CC[C@@H](CNC(=N)N)CC3)o1)C(C)(C)CCC2(C)C ... 730
Cc1cc2c(cc1Cc1ccc(C(=O)NC3CCN(c4nccc(NCC5CCCO5)n4)C3)o1)C(C)(C)CCC2(C)C (stereo not drawn) ... 3000
COc1cccc(OC)c1NC(=O)c1ccc(Cc2c(C)c(C)c(Br)c(C)c2C)o1 ... 2130
COc1cc(OC)c(NC(=O)c2ccc(Cc3cc4c(cc3C)OCCC4(C)C)o2)c(OC)c1 ... 11
COc1cccc(OC)c1NC(=O)c1ccc(Cc2c(C)cc(C)cc2C)o1 ... 325
COc1cc(NS(C)(=O)=O)c(NC(=O)c2ccc(Cc3cc4c(cc3C)C(C)(C)CCC4(C)C)o2)c(OC)c1 ... 57

We now examine a further molecule.
Returns the measured IC50 for the input molecule. Input: Cc1cc2c(cc1Cc1ccc(C(=O)NCC3CCC(CN)CC3)o1)C(C)(C)CCC2(C)C (stereo not drawn)
740

---

target: human GnRH receptor (Homo sapiens, UniProt P30968); construct: expressed in transfected cells; host or cells: HEK 293 (hGnRH-R/293, from Dr. Stuart Sealfon); experiment: Radioligand binding, 125I-GnRH-A displacement, membranes of HEK 293 cells with human GnRH receptor; settings: 1 h, repeat of % Inhib. at 1 uM; read-out: Repeats @ 1 uM hGnRH
Sequence (P30968 whole entry): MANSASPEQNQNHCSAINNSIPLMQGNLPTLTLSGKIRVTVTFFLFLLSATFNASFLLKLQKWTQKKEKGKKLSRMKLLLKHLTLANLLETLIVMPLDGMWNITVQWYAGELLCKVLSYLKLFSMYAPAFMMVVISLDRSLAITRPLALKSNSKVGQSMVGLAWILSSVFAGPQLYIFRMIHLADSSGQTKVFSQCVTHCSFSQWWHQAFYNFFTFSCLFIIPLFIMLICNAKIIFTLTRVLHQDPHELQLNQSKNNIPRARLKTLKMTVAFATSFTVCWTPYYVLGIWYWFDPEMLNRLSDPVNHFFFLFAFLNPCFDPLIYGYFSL
Collected inhibition at 1 µM values appear next to each entry.
Express it in %; write the number only.

These solved cases illustrate the format of a correct answer.
Cc1cc2c(cc1Cc1ccc(C(=O)N3CCN(c4cccc(C(F)(F)F)c4)CC3)o1)C(C)(C)CCC2(C)C ... 3
Cc1cc2c(cc1Cc1ccc(C(=O)N3CCN(c4ccccc4Cl)CC3)o1)C(C)(C)CCC2(C)C ... -7
COc1cccc(CCNC(=O)c2ccc(Cc3cc4c(cc3C)C(C)(C)CCC4(C)C)o2)c1 [drawing 994] ... 50

We now examine a further compound.
Returns the measured inhibition at 1 µM for the input compound. Input: Cc1cc2c(cc1Cc1ccc(C(=O)NCCc3ccc(F)cc3)o1)C(C)(C)CCC2(C)C [drawing 1198]
45
